Cited source: patent US10689452

Quick list: EC50 per entry.
Target: T1, human TNFR1-Fc fusion protein (human, UniProt P19438 29-211)
T1 construct: range 29-211; Made in stably transfected HEK293 cells; coated on ELISA plates or immobilised on QCM chips; also called huTNFR1-Fc; human TNFR-Fc; not shown: Fc part from vector pSecTagL1-Fc
T1 sequence (looked up): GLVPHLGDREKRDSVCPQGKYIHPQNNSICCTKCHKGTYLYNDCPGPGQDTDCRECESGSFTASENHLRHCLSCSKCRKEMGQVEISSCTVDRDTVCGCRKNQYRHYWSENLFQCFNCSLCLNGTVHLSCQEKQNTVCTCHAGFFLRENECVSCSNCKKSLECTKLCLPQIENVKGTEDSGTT
Experiment: ELISA, human TNFR1-Fc

binder: scFvT12B (scFv, V domains shown) VH: HVQLVQSGAEVKKPGSSVKVSCKASGYTFTDFYINWVRQAPGQGLEWIGEIVPSQGEAKYNDKFKARVTITADKSTSTAYMELSSLRSEDTAVYYCARWDFLDYWGQGTTVTVSS VL: DIVMTQSPLSLPVTPGEPASISCRSSQSLLHSNGNTYLHWYLQKPGQSPQLLIYTVSNRFSGVPDRFSGSGSGTDFTLKISRVEAEDVGVYYCSQGTHVPYTFGGGTKVEIK
result.unit: nM
EC50: 1.14

binder: scFvFRK13.5 (scFv, V domains shown, also called scFvFKR13.5) VH: HVQLVQSGAEVKKPGSSVKVSCKASGYTFTDFYINWVRQAPGQGLEWIGEIVPSQGEAKYNDKFKARVTITADKSTSTAYMELSSLRSEDTAVYYCARWDFLDYWGQGTTVTVSS VL: DIQMTQSPSSLSASVGDRVTITCRSSQSLLHSNGNTYLHWYQQKPGKAPKLLIYTVSNRFSGVPSRFSGSGSGTDFTLTISSLQPEDFATYYCSQSTHVPYTFGGGTKVEIK
result.unit: nM
EC50: 1.06

binder: scFvFRK13.7 (scFv, V domains shown) VH: HVQLVQSGAEVKKPGSSVKVSCKASGYTFTDFYINWVRQAPGQGLEWIGEIVPSQGEAKYNDKFKARVTITADKSTSTAYMELSSLRSEDTAVYYCARWDFLDYWGQGTTVTVSS VL: DVQMTQSPSSLSASVGDRVTITCRSSQSLLHSNGNTYLHWYQQKPGKAPKLLIYTVSNRFSGVPSRFSGSGSGTDFTLTISSLQPEDFATYYCSQSTHVPYTFGGGTKVEIK
result.unit: nM
EC50: 1.09

binder: scFvIZI06.1 (scFv, V domains shown, Made in the periplasm of E. coli TG1; also called ATROSAB scFv) VH: QVQLVQSGAEVKKPGSSVKVSCKASGYTFTDFYINWVRQAPGQGLEWIGEIYPYSGHAYYNEKFKARVTITADKSTSTAYMELSSLRSEDTAVYYCARWDFLDYWGQGTTVTVSS VL: DIVMTQSPLSLPVTPGEPASISCRSSQSLLHSNGNTYLHWYLQKPGQSPQLLIYTVSNRFSGVPDRFSGSGSGTDFTLKISRVEAEDVGVYYCSQSTHVPYTFGGGTKVEIK
result.unit: nM
EC50: 3.07
